system: AncSZ; test: phosphorylation enrichment, bacterial display (enrichment ratio); higher = better substrate or ligand; peptides without Tyr show the background;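 note: 11-residue human phosphosite peptides and single-mutation variants displayed on the E. coli surface, counted by deep sequencing, each peptide's frequency after selection divided by its frequency in the unselected input library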;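 note: frequency after pTyr selection over input frequency; kinase dosed for 20-30% of maximal phosphorylation in three min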
Quantity Name: phosphorylation enrichment
Reply with the value as a number alone.

Guide cases for phosphorylation enrichment, answers given:
Residue Sequence	phosphorylation enrichment
HKLSFYEFDFE [BTK_Y40_YF]	1.73
YGGLRYGYGGL [KRTAP20-2_Y13_V17G]	0.645
FGLQAYTEVKT [ALDH2_Y502_YF]	1.03
VFAPDYIAGVS [NOB1_Y366]	1.05
ATATDYHTTSH [SLC4A1_Y46]	0.473

What value of phosphorylation enrichment has been reported for the following sequence? RRNEEYCLLAS [ITK_Y198_D202A]
0.976

What value of phosphorylation enrichment has been reported for the following sequence? EILLSYPRTGY [TGM1_Y365_L366P]
0.626

* * *

biological target: FGFR3 (UniProt P22607); test: phosphorylation enrichment, bacterial display (enrichment ratio); higher = better substrate or ligand; peptides without Tyr show the background
Sequence (P22607 whole entry, looked up): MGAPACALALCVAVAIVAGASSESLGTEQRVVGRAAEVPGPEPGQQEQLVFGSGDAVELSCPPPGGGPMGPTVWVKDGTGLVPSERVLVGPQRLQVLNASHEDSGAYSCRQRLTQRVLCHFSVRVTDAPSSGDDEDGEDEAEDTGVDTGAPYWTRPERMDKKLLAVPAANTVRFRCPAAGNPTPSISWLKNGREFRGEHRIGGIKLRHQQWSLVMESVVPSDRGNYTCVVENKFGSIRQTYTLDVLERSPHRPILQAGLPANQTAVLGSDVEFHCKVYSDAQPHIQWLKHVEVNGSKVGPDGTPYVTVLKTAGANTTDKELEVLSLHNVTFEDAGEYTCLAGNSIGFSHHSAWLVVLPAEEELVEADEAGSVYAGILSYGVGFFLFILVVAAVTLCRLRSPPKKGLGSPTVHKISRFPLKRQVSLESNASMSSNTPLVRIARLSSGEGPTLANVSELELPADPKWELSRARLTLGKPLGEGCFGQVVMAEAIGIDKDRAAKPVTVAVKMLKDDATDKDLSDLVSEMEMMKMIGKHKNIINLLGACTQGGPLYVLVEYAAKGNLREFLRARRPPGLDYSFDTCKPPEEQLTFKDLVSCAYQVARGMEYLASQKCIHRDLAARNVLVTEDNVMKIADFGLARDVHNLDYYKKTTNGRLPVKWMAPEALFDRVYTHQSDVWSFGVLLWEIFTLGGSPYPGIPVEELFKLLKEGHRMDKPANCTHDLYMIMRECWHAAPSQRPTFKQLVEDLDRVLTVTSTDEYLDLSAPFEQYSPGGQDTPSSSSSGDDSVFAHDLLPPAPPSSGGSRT
I'd appreciate it if you could label each record using phosphorylation enrichment and these ranges: lower (below 0.5), middle (0.5 to below 0.7), upper (0.7 or more)

Reference set, count: 10
Residue Sequence	Assigned Category
DLSEVYKPRRK [CCDC93_Y176]	middle
FDEFRYRSVIK [CFTR_Y517_YF]	lower
PLYSKYWPNHI [GREB1L_Y1560_R1558S]	upper
DFLSSYSAVKQ [OAT_Y85_N89K]	lower
AIDDKYSRREE [SART1_Y685]	middle
QTEAEYRFIYM [PTPN11_Y511_Q510E]	upper
ARGTRYRYVSQ [UCN3_Y95]	lower
QLPRGYISIPV [BAG3_Y205]	upper
SDGKRYRVPSD [HHIPL2_Y395_H391D]	lower
GHLFAYDWIRI [BEST1_Y227_S231R_YF]	upper

Which category does the recorded phosphorylation enrichment put TVLWLYTGTRP [UGT1A1_Y337_R336L] in?
upper

Which category does the recorded phosphorylation enrichment put RLSELYLRRNP [CFAP410_Y68_R73P] in?
middle

Which category does the recorded phosphorylation enrichment put VPANRYDLLRL [FARSB_Y72_C76R] in?
middle

Which category does the recorded phosphorylation enrichment put ANSSFHSTRSA [NUMA1_Y1836_Y1836H] in?
middle

* * *

biological target: EPHB1 (UniProt P54762); assay: phosphorylation enrichment, bacterial display (enrichment ratio); higher = better substrate or ligand; peptides without Tyr show the background
Sequence (P54762 whole entry, looked up): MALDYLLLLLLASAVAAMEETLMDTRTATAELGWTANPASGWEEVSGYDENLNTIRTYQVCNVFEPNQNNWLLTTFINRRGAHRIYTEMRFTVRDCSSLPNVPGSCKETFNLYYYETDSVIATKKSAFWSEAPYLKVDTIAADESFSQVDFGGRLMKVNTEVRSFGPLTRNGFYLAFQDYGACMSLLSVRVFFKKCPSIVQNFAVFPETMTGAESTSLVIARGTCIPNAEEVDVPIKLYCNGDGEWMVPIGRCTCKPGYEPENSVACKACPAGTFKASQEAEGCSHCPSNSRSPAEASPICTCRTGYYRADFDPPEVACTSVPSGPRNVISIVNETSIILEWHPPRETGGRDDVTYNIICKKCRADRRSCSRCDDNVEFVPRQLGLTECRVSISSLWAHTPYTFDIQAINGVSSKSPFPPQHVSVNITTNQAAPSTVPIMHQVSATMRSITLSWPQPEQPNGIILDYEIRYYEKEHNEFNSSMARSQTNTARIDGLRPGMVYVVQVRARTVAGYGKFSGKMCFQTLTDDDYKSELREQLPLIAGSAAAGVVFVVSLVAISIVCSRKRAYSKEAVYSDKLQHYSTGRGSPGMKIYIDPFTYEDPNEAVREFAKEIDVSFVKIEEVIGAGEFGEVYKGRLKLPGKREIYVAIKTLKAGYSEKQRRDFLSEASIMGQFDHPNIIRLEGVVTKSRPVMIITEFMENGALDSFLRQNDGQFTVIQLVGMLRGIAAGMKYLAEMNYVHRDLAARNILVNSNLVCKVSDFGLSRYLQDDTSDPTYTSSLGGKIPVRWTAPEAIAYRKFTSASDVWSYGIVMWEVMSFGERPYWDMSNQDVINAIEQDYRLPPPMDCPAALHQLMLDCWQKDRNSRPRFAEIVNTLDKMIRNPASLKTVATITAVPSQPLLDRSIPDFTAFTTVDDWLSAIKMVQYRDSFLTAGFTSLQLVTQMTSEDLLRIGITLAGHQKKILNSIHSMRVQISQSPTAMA
Outcome label depends on phosphorylation enrichment relative to 0.6: at/above gives label 1, below gives label 0.

Residue Sequence	Target System	Assigned Category
KKGMIYGGGGG [PSME1_Y249_T244K]	EPHB1 (UniProt P54762)	label 0
KDHPDYKFQAR [SOX10_Y171_P175A_YF]	EPHB1 (UniProt P54762)	label 0
GHLFAYDWIRI [BEST1_Y227_S231R_YF]	EPHB1 (UniProt P54762)	label 1
GGSDCYGSLRP [MYLK_Y846_R845C]	EPHB1 (UniProt P54762)	label 0

Check the entry YNDSAYNQQLI [ZPLD1_Y198_T197A] : does phosphorylation enrichment equal or exceed 0.6?
label 0

Check the entry LKETGYVVERP [BCLAF1_Y466] : does phosphorylation enrichment equal or exceed 0.6?
label 0

Check the entry GIYEDYVEGLR [MYL6_Y89_T85I] : does phosphorylation enrichment equal or exceed 0.6?
label 1

Check the entry DTFDPYLDIAL [USP36_Y268_V271I_YF] : does phosphorylation enrichment equal or exceed 0.6?
label 1

Check the entry LKGQVYILGLE [ASS1_Y359_R363L] : does phosphorylation enrichment equal or exceed 0.6?
label 1

Check the entry FYLGAYDRFLP [SLC22A5_Y486_V481F] : does phosphorylation enrichment equal or exceed 0.6?
label 1
